Quick reference: IC50 of the listed items.
Target: RET^V804M (Homo sapiens, UniProt P07949, V804M)
Construct: GST-RET^V804M (658-1114 aa, final concentration of 0.02 nM)
Sequence (P07949 658-1114 V804M): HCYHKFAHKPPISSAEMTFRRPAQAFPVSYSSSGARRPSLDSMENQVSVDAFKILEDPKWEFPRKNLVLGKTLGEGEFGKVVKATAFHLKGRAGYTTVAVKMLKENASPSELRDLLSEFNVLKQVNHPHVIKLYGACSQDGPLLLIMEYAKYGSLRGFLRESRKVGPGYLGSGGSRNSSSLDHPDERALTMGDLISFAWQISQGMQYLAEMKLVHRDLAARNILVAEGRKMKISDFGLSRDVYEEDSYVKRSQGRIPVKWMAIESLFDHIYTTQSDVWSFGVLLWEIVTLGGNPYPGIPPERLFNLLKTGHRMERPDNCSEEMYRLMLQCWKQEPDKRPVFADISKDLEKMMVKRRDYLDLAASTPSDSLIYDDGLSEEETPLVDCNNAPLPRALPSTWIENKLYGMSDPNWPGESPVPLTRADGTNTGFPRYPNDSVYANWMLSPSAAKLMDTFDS
Assay: In vitro enzymatic activity assay on RET^V804M (HTRF)
Details: GST-RET^V804M (658-1114 aa) 0.02 nM, ATP 1.5 μM

Worked examples, 5 compounds total:
For RET^V804M (Homo sapiens, UniProt P07949, V804M), provide IC50 of CS(=O)(=O)c1ccccc1CN1C2CC1CN(c1ccc(-c3cc(-c4cnn(C(F)F)c4)cn4ncc(C#N)c34)cn1)C2 please.
1780 pM

IC50 of CS(=O)(=O)c1ccccc1CN1C2CC1CN(c1ccc(-c3cc(N4CC(F)(F)C4)cn4ncc(C#N)c34)cn1)C2 on RET^V804M (Homo sapiens, UniProt P07949, V804M)?
3970 pM

Item CSc1cc(CN2C3CC2CN(c2ccc(-c4cc(-c5cnn(C(F)F)c5)cn5ncc(C#N)c45)cn2)C3)ccn1 with RET^V804M (Homo sapiens, UniProt P07949, V804M) - IC50?
735 pM

Give the reported IC50 for CSc1cccc(CN2C3CC2CN(c2ccc(-c4cc(-c5cnn(C(F)F)c5)cn5ncc(C#N)c45)cn2)C3)n1 (system: RET^V804M (Homo sapiens, UniProt P07949, V804M)).
4190 pM

Record lookup: for RET^V804M (Homo sapiens, UniProt P07949, V804M), what IC50 belongs to CSc1ccc(CN2C3CC2CN(c2ccc(-c4cc(-c5cnn(C(F)F)c5)cn5ncc(C#N)c45)cn2)C3)cn1 ?
593 pM

Next:
Please state recorded IC50 (tested on RET^V804M (Homo sapiens, UniProt P07949, V804M)) of CSc1ccc(CN2C3CC2CN(c2ccc(-c4cc(-c5cnn(C)c5)cn5ncc(C#N)c45)cn2)C3)nc1
242 pM

Form: Entry = COC/C=C/C(=O)N1C2CC1CN(c1ccc(-c3cc(-c4cnn(C)c4)cn4ncc(C#N)c34)cn1)C2 | System = RET^V804M (Homo sapiens, UniProt P07949, V804M) | IC50 = ____
6370 pM

What measured IC50 is associated with Cn1cc(-c2cc(-c3ccc(N4CC5CC(C4)N5Cc4ccc(S(C)(=O)=O)nc4)nc3)c3c(C#N)cnn3c2)cn1 on RET^V804M (Homo sapiens, UniProt P07949, V804M)?
479 pM

// fetch RET^V804M (Homo sapiens, UniProt P07949, V804M) IC50 for CS(=O)(=O)c1cccc(CN2C3CC2CN(c2ccc(-c4cc(N5CC(F)(F)C5)cn5ncc(C#N)c45)cn2)C3)c1
1710 pM

Kindly state the measured IC50 obtained for CC1=C(C(=O)N2CCN(c3ccc(-c4cc(-c5cnn(C)c5)cn5ncc(C#N)c45)cn3)CC2)CCC1 with RET^V804M (Homo sapiens, UniProt P07949, V804M).
1250 pM

Test system RET^V804M (Homo sapiens, UniProt P07949, V804M); read-out IC50; what value for CS(=O)(=O)c1ccc(CN2C3CC2CN(c2ccc(-c4cc(N5CC(F)(F)C5)cn5ncc(C#N)c45)cn2)C3)cc1 ?
2580 pM

API: value(readout= IC50, system= RET^V804M (Homo sapiens, UniProt P07949, V804M), query= Cn1cc(-c2cc(-c3ccc(N4CC5CC(C4)N5Cc4ccccc4S(C)(=O)=O)nc3)c3c(C#N)cnn3c2)cn1 )
507 pM

Quick check: IC50 on RET^V804M (Homo sapiens, UniProt P07949, V804M), item COc1ccc(CN2C3CC2CN(c2ccc(-c4cc(N5CC(C#N)C5)cn5ncc(C#N)c45)cn2)C3)cn1 ?
332 pM

Short answer please: IC50, RET^V804M (Homo sapiens, UniProt P07949, V804M), entry Cn1cc(-c2cc(-c3ccc(N4CC5CC(C4)N5Cc4ccc(S(C)(=O)=O)cc4)nc3)c3c(C#N)cnn3c2)cn1
236 pM

Every entry's value here was drawn from patent US12583855B2.
